Collected inhibition at 1 µM values appear next to each entry.
- assayedSystem: UniProt P35968
- Sequence (P35968 20-1356): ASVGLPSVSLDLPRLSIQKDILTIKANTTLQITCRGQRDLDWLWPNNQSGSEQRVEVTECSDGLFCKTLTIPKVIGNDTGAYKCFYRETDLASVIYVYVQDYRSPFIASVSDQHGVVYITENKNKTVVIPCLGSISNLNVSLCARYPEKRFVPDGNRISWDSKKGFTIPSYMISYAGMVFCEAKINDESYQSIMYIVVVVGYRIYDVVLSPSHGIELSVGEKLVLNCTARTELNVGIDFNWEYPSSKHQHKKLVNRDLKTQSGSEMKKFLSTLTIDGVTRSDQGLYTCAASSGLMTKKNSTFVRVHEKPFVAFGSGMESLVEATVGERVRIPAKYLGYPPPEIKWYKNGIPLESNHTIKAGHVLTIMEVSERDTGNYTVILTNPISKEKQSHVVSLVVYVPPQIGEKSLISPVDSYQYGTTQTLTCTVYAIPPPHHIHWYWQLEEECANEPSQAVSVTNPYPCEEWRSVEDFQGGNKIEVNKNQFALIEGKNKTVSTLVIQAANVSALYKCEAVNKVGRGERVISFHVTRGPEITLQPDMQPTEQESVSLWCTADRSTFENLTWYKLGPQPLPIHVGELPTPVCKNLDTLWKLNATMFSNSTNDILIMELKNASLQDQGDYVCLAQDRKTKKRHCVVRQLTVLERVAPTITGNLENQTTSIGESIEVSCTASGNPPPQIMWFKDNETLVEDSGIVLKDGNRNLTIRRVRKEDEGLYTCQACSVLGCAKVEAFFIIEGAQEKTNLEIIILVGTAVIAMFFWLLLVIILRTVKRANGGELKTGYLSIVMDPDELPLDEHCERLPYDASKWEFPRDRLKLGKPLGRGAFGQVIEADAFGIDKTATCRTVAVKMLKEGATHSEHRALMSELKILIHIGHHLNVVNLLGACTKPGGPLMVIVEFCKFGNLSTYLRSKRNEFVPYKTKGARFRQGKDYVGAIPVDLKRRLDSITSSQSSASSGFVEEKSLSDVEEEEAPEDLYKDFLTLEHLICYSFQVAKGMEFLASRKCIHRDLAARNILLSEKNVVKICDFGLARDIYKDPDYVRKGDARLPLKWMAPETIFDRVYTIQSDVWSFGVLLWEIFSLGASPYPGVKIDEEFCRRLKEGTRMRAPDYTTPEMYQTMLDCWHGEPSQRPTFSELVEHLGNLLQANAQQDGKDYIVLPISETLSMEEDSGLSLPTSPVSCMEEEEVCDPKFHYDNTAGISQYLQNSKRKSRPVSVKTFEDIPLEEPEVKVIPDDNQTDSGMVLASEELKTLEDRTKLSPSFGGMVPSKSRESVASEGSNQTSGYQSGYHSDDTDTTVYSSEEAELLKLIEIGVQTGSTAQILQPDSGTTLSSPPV
- experimentSummary: Inhibitory activity against kinase KDR, Z'-LYTE method (Invitrogen)
- Format: biochemical
- recordedConditions: 1 μM compound; read-out: Inhibition (% inhibition at 1 μM) against KDR

In the examples that follow, each entry is paired with its recorded inhibition at 1 µM.
{"columns": ["structureSmilesString", "assayedSystem", "inhibition at 1 µM"],
 "data": [
  ["O=C(Nc1cccc(Oc2ccc3nccnc3c2)c1)c1ccc(Cl)c(C(F)(F)F)c1", "UniProt P35968", "70 to 89%"],
  ["O=C(Nc1cccc(F)c1)Nc1cc(F)cc(Oc2ccc3ncc(N4CCOCC4)nc3c2)c1", "UniProt P35968", "< 70%"],
  ["O=C(Nc1ccc(Cl)c(C(F)(F)F)c1)Nc1ccc(Oc2ccc3nccnc3c2)cc1F", "UniProt P35968", "70 to 89%"],
  ["O=C(Nc1ccc(F)c(Oc2ccc3nccnc3c2)c1)c1ccc(Cl)c(C(F)(F)F)c1", "UniProt P35968", "70 to 89%"],
  ["O=C(Nc1cccc(Oc2ccc3nccnc3c2)c1)Nc1ccc(Cl)c(C(F)(F)F)c1", "UniProt P35968", "> 89%"],
  ["O=C(Nc1ccc(Cl)cc1)Nc1cccc(Oc2ccc3ncc(N4CCNCC4)nc3c2)c1", "UniProt P35968", "> 89%"],
  ["O=C(Nc1cc(F)cc(Oc2ccc3nccnc3c2)c1)Nc1ccc(Cl)c(C(F)(F)F)c1", "UniProt P35968", "70 to 89%"],
  ["O=C(Nc1cccc(F)c1)Nc1ccc(F)c(Oc2ccc3ncc(N4CCOCC4)nc3c2)c1", "UniProt P35968", "< 70%"]
]}

query: Please report the recorded inhibition at 1 µM for O=C(Nc1cc(F)cc(F)c1)Nc1cccc(Oc2ccc3ncc(N4CCNCC4)nc3c2)c1 .
result: 70 to 89%

query: Please report the recorded inhibition at 1 µM for O=C(Nc1ccc(Cl)cc1)Nc1ccc(F)c(Oc2ccc3ncc(N4CCNCC4)nc3c2)c1 .
result: > 89%

query: Please report the recorded inhibition at 1 µM for O=C(Nc1cccc(F)c1)Nc1cccc(Oc2ccc3ncc(N4CCOCC4)nc3c2)c1 .
result: 70 to 89%

query: Please report the recorded inhibition at 1 µM for O=C(Nc1cc(F)cc(Oc2ccc3ncc(N4CCOCC4)nc3c2)c1)Nc1ccc(Cl)c(C(F)(F)F)c1 .
result: 70 to 89%

query: Please report the recorded inhibition at 1 µM for O=C(Nc1ccc(Cl)c(F)c1)Nc1ccc(F)c(Oc2ccc3ncc(N4CCNCC4)nc3c2)c1 .
result: 70 to 89%

query: Please report the recorded inhibition at 1 µM for O=C(Nc1cccc(F)c1)Nc1ccc(F)c(Oc2ccc3nccnc3c2)c1 .
result: < 70%

query: Please report the recorded inhibition at 1 µM for O=C(Nc1ccc(Oc2ccc3ncc(N4CCNCC4)nc3c2)cc1)Nc1ccc(F)c(C(F)(F)F)c1 .
result: > 89%

query: Please report the recorded inhibition at 1 µM for O=C(Nc1cc(F)cc(F)c1)Nc1ccc(F)c(Oc2ccc3ncc(N4CCOCC4)nc3c2)c1 .
result: < 70%

----------
- assayedSystem: BRAF V600E (Homo sapiens (Human), UniProt P15056, V600E)
- Sequence (P15056 whole entry V600E): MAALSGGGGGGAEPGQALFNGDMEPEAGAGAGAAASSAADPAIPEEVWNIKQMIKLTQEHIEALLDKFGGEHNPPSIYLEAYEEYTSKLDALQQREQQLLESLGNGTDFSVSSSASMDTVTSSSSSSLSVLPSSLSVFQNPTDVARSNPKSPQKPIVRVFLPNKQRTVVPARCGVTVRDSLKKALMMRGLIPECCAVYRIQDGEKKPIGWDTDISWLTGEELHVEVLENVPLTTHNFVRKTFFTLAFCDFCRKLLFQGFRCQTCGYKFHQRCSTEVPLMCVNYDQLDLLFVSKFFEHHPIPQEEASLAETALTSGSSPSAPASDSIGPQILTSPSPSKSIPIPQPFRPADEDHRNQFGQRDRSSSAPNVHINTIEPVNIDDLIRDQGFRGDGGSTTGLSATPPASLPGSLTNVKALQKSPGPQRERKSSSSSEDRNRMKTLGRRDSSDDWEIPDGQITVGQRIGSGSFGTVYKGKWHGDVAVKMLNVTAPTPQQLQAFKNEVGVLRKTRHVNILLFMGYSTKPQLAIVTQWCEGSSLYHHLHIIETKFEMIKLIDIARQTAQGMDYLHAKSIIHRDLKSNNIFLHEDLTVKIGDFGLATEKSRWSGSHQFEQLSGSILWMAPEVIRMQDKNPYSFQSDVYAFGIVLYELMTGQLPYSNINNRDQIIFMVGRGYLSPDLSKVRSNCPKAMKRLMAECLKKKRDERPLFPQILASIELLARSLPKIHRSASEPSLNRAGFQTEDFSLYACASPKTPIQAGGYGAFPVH
- experimentSummary: Inhibitory activity against kinase BRAF V600E, Z'-LYTE method (Invitrogen)
- Format: biochemical
- recordedConditions: 1 μM compound; read-out: Inhibition (% inhibition at 1 μM) against BRAF V600E
readoutLabel: inhibition at 1 µM

{"columns": ["compound", "inhibition at 1 µM"],
 "data": [
  ["O=C(Nc1cccc(Cl)c1)Nc1cccc(Oc2ccc3ncc(N4CCOCC4)nc3c2)c1 [Compound C047]", "> 89%"],
  ["O=C(Nc1cccc(Oc2ccc3ncc(N4CCNCC4)nc3c2)c1)Nc1cccc(C(F)(F)F)c1 [Compound C040]", "> 89%"],
  ["O=C(Nc1ccc(F)c(Cl)c1)Nc1ccc(F)c(Oc2ccc3ncc(N4CCNCC4)nc3c2)c1 [Compound C067]", "> 89%"]
]}

query: Please report the recorded inhibition at 1 µM for O=C(Nc1ccc(F)c(Oc2ccc3nccnc3c2)c1)c1cccc(F)c1 [Compound C017] .
result: 70 to 89%

query: Please report the recorded inhibition at 1 µM for O=C(Nc1cccc(Cl)c1)Nc1ccc(F)c(Oc2ccc3ncc(N4CCNCC4)nc3c2)c1 [Compound C063] .
result: > 89%

query: Please report the recorded inhibition at 1 µM for O=C(Nc1ccc(F)c(F)c1)Nc1ccc(F)c(Oc2ccc3ncc(N4CCOCC4)nc3c2)c1 [Compound C052] .
result: > 89%
